# Tested on: eggs of Spodoptera littoralis
# ASSAY TEXT: Ovicidal activity, sprayed eggs (Test 1 (c)), toxicity vs parathion
# Type: in vivo, Egyptian cotton leafworm (Spodoptera littoralis)
# EXPERIMENTAL PARAMETERS: eggs less than 24 hours old; approximately five days; 50% mortality basis; standard parathion = 100
Each entry below lists one item and its recorded Toxicity Index S.l.ov. value.
RECORDED ENDPOINT: Toxicity Index S.l.ov.

STRUCTURE STRING: O=C(NC(=O)N(Sc1ccc(Br)cc1)c1ccc(Cl)cc1)c1c(F)cccc1F
TEST RESULT: 850
//
STRUCTURE STRING: Cc1cccc(SN(C(=O)NC(=O)c2c(F)cccc2F)c2ccc(Cl)cc2)c1
TEST RESULT: 1400
//
STRUCTURE STRING: O=C(NC(=O)N(SC(Cl)(Cl)Cl)c1ccc(C(F)(F)F)cc1)c1c(F)cccc1F
TEST RESULT: 400
//
STRUCTURE STRING: O=C(NC(=O)N(Sc1ccc([N+](=O)[O-])cc1[N+](=O)[O-])c1ccc(Cl)cc1)c1c(F)cccc1F
TEST RESULT: 1800
//
STRUCTURE STRING: Cc1ccc(SN(C(=O)NC(=O)c2c(F)cccc2F)c2ccc(Cl)cc2)cc1
TEST RESULT: 680
//
STRUCTURE STRING: O=C(NC(=O)N(Sc1ccccc1)c1ccc(Oc2ccc(C(F)(F)F)cc2Cl)cc1)c1ccccc1Cl
TEST RESULT: 0
//
STRUCTURE STRING: CC(C)(C)c1ccc(SN(C(=O)NC(=O)c2c(F)cccc2F)c2ccc(C(F)(F)F)cc2)cc1
TEST RESULT: 8
//
STRUCTURE STRING: O=C(NC(=O)N(Sc1ccccc1[N+](=O)[O-])c1ccc(Oc2ccc(C(F)(F)F)cc2Cl)cc1)c1c(F)cccc1F
TEST RESULT: 0
//
STRUCTURE STRING: CC(C)(C)c1ccc(SN(C(=O)NC(=O)c2c(F)cccc2F)c2ccc(Cl)cc2)cc1
TEST RESULT: 0
//
STRUCTURE STRING: O=C(NC(=O)N(SC(Cl)(Cl)Cl)c1ccc(Oc2ccc(C(F)(F)F)cc2Cl)cc1)c1ccccc1Cl
TEST RESULT: 0
//
STRUCTURE STRING: Cc1ccccc1SN(C(=O)NC(=O)c1c(F)cccc1F)c1ccc(C(F)(F)F)cc1
TEST RESULT: 2700
//
STRUCTURE STRING: Cc1ccc(SN(C(=O)NC(=O)c2ccccc2Cl)c2ccc(Oc3ccc(C(F)(F)F)cc3Cl)cc2)cc1
TEST RESULT: 0
//
STRUCTURE STRING: Cc1ccccc1SN(C(=O)NC(=O)c1ccccc1Cl)c1ccc(Oc2ccc(C(F)(F)F)cc2Cl)cc1
TEST RESULT: 0
//
STRUCTURE STRING: O=C(NC(=O)N(SC(Cl)(Cl)Cl)c1ccc(Cl)cc1)c1c(F)cccc1F
TEST RESULT: 560
//
STRUCTURE STRING: O=C(NC(=O)N(Sc1ccc([N+](=O)[O-])cc1[N+](=O)[O-])c1ccc(OC(F)(F)F)cc1)c1ccccc1Cl
TEST RESULT: 3300
//
STRUCTURE STRING: O=C(NC(=O)N(Sc1ccc([N+](=O)[O-])cc1[N+](=O)[O-])c1ccc(C(F)(F)F)cc1)c1c(F)cccc1F
TEST RESULT: 2300
